tested on: MCF7; assay: Anticancer activity against Homo sapiens (human) MCF7 cells assessed as inhibition of cell viability after 96 hr by MTT assay; assay type: functional, cell-based; details: MCF7, 96 h
ENDPOINT_NAME: IC50 (µM)
Just the number please, in µM, no unit attached.

O=C1CSC(N2N=C(c3ccccc3)CC2c2c(F)cccc2F)=N1 (centres undefined) :: 1.94

Record Fc1cccc(F)c1C1CC(c2ccccc2)=NN1c1nc(-c2ccc(Br)cc2)cs1 (centres undefined) : what is its IC50 with MCF7?
2.14

Reported IC50 for MCF7, given Cc1ccc(C2N=C(N3N=C(c4ccccc4)CC3c3c(F)cccc3F)S2)cc1 (centres undefined) ?
3.23

Short answer please: IC50, MCF7, entry Fc1cccc(F)c1C1CC(c2ccccc2)=NN1C1=NC(c2ccccc2)S1 (centres undefined)
1.72

Item COc1ccc(C2N=C(N3N=C(c4ccccc4)CC3c3c(F)cccc3F)S2)cc1 (centres undefined) with MCF7 - IC50?
2.04

Request: IC50, test system MCF7, entry Fc1cccc(F)c1C1CC(c2ccccc2)=NN1c1nc(-c2ccc(Cl)cc2)cs1 (centres undefined)
2.76

Field: IC50 (MCF7). Entry: Oc1ccc(C2N=C(N3N=C(c4ccccc4)CC3c3c(F)cccc3F)S2)cc1 (centres undefined)
4.32

Checklist item: IC50 tested on MCF7, entry Fc1cccc(F)c1C1CC(c2ccccc2)=NN1C1=NC(c2ccc(Cl)cc2)S1 (centres undefined) , value?
1.69

Test system MCF7; read-out IC50; what value for Oc1ccc(-c2csc(N3N=C(c4ccccc4)CC3c3c(F)cccc3F)n2)cc1 (centres undefined) ?
3.04

---

test system: MCF7; assay: Anticancer activity against Homo sapiens (human) MCF7 cells assessed as inhibition of cell viability after 96 hr by MTT assay; format: functional, cell-based; settings: MCF7, 96 h
Below, each entry is listed alongside its reported IC50.
Entry rule: numbers only, all in µM.

Fc1cccc(F)c1C1CC(c2ccccc2)=NN1c1nc(-c2cccnc2)cs1 (stereo not given) :: 2.45

What value of IC50 has been reported for the following compound? O=[N+]([O-])c1ccc(C2N=C(N3N=C(c4ccccc4)CC3c3c(F)cccc3F)S2)cc1 (stereo not given)
3.22

Bench note: what IC50 did O=[N+]([O-])c1ccc(-c2csc(N3N=C(c4ccccc4)CC3c3c(F)cccc3F)n2)cc1 (stereo not given) show?
2.09

What value of measured IC50 is listed for CCOC(=O)Cc1csc(N2N=C(c3ccccc3)CC2c2c(F)cccc2F)n1 (stereo not given) ?
2.11

// query IC50 value for entry O=C(Cc1csc(N2N=C(c3ccccc3)CC2c2c(F)cccc2F)n1)N/N=C/c1c(F)cccc1F (stereo not given)
1.2

---

// MIC lookup, one value per entry
test system: Saccharomyces cerevisiae; test: Antimicrobial activity against Saccharomyces cerevisiae ATCC 9763 assessed as growth inhibition after 24 hr by broth microdilution method; type: functional; settings: ATCC 9763, 24 h
Supply the numeric figure in µg/mL, leaving out any unit text.

Example entries begin here.
O=C1CSC(N2N=C(c3ccccc3)CC2c2c(F)cccc2F)=N1 (stereo not given) :: 31.2
Fc1cccc(F)c1C1CC(c2ccccc2)=NN1c1nc(-c2ccc(Cl)cc2)cs1 (stereo not given) :: 125
Cc1ccc(-c2csc(N3N=C(c4ccccc4)CC3c3c(F)cccc3F)n2)cc1 (stereo not given) :: 62.5
Fc1cccc(F)c1C1CC(c2ccccc2)=NN1C1=NC(c2ccc(Cl)cc2Cl)S1 (stereo not given) :: 16
Fc1cccc(F)c1C1CC(c2ccccc2)=NN1c1nc(-c2ccccc2)cs1 (stereo not given) :: 62.5

# get_value(readout= MIC, system= Saccharomyces cerevisiae) for Cc1ccc(C2N=C(N3N=C(c4ccccc4)CC3c3c(F)cccc3F)S2)cc1 (stereo not given)
62.5

Identify the measured MIC of COc1ccc(C2N=C(N3N=C(c4ccccc4)CC3c3c(F)cccc3F)S2)cc1 (stereo not given) for Saccharomyces cerevisiae.
16

Query the reported MIC for Saccharomyces cerevisiae; item: Oc1ccc(C2N=C(N3N=C(c4ccccc4)CC3c3c(F)cccc3F)S2)cc1 (stereo not given)
16

What reported MIC corresponds to O=C(/C=C/c1c(F)cccc1F)c1ccccc1 on Saccharomyces cerevisiae?
62.5

Form: Entry = Oc1ccc(-c2csc(N3N=C(c4ccccc4)CC3c3c(F)cccc3F)n2)cc1 (stereo not given) | System = Saccharomyces cerevisiae | MIC = ____
31.2
